biological target: steroid sulfatase (STS) (Homo sapiens, UniProt P08842); experiment: STS inhibition in placental microsomes; format: biochemical; set-up: a placental microsomal preparation from a sulfatase-positive human placenta from a normal term pregnancy; from tissue; host or cells: human placenta (microsomal preparation); settings: 1 μM inhibitor; 20 μM E1S
Sequence (P08842 22-583): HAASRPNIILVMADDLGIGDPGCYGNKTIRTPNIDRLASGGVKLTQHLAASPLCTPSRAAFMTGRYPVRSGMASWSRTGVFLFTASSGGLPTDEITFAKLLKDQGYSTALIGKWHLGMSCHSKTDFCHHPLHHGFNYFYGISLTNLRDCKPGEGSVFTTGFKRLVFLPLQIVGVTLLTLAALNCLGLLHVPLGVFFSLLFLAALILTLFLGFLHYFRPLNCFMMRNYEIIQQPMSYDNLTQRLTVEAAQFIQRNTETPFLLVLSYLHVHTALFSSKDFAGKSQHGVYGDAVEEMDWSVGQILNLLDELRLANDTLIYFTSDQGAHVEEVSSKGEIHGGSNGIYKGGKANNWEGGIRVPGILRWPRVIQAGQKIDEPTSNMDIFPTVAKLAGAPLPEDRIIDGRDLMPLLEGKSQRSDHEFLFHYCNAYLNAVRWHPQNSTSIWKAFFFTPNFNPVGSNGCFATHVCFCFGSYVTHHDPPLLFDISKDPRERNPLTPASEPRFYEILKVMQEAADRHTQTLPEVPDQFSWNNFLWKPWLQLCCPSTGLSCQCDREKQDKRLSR
measure name: inhibition at 1 µM (%)
Write the number in % without appending the unit.

Cc1c(-c2ccccc2)c(=O)oc2cc(OS(N)(=O)=O)ccc12 [compound 40, 4-Methyl-3-phenylcoumarin-7-O-sulfamate] | 95

Q: What reported inhibition at 1 µM corresponds to CCCCCc1cc(=O)oc2cc(OS(N)(=O)=O)ccc12 [compound 10, 4-Pentylcoumarin-7-O-sulfamate] on steroid sulfatase (STS) (Homo sapiens, UniProt P08842)?
A: 97

Q: Now the compound NS(=O)(=O)Oc1ccc2c(CCl)cc(=O)oc2c1 [compound 21, 4-Chloromethylcoumarin-7-O-sulfamate]
A: 59

Q: Then this compound: Cc1c(CCc2ccccc2)c(=O)oc2cc(OS(N)(=O)=O)ccc12 [compound 42]
A: 99
